Measured CC50 at 5 days of individual entries
Assay Details: Cytotoxicity in mock-infected MT-4 cells (MTT method)
Assay type: cell-based
Experimental Context: human, CC50
Method: The antiviral potential and cytotoxic effects of the target compounds were assessed using the MTT assay in MT-4 cells, following established protocols. The HIV-1 (IIIB) strain, single mutant strains (L100I, K103N, Y181C, Y188L and E138K), double mutant strains (F227L + V106A and K103N + Y181C) and MT-4 cells were provided by the Rega Institute of Medicine at the University of Leuven, Belgium. These viral strains were propagated in MT-4 cells. […]
Experimental Readout: CC50 at 5 days

[[record]]
compound = "Cc1cc(C#N)cc(C)c1Oc1nc(Nc2ccc(NC(=O)[C@@H](NC(=O)OC(C)(C)C)C(C)C)cc2)nc2ccsc12"
data_value = "> 213 µM"

[[record]]
compound = "Cc1cc(C#N)cc(C)c1Oc1nc(Nc2ccc(NC(=O)[C@H](Cc3ccccc3)NC(=O)OC(C)(C)C)cc2)nc2ccsc12"
data_value = "> 197 µM"

[[record]]
compound = "Cc1cc(C#N)cc(C)c1Oc1nc(Nc2ccc(C#N)cc2)nc(N)c1Br [ETR, etravirine, reference compound]"
data_value = "> 4.61 µM"

[[record]]
compound = "Cc1cc(C#N)cc(C)c1Oc1nc(Nc2ccc(NC(=O)[C@@H](CC(C)C)NC(=O)OC(C)(C)C)cc2)nc2ccsc12"
data_value = "> 208 µM"

[[record]]
compound = "Cc1cc(C#N)cc(C)c1Oc1nc(Nc2ccc(NC(=O)C(Cc3c[nH]c4ccccc34)NC(=O)OC(C)(C)C)cc2)nc2ccsc12 (centres unmarked)"
data_value = "> 186 µM"

